B1: library; numbered along this chain (parent)
chain: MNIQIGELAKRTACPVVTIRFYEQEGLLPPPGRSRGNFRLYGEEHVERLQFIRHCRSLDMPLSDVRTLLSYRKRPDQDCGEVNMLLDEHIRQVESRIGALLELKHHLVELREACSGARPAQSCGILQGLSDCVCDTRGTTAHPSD

- Variants of: B1
- assayNotes: sfGFP reporter fluorescence (15 h) (µM FITC); higher = stronger transcriptional activation
- measurementContext: library round: Round 0; ligand: 30 µM Zn

| residueChange | sfGFP reporter fluorescence |
| --- | --- |
| L129Y | 0.0563 |
| K104V G128I | 1.84 |
| I125S | 0.0568 |
| I125W | 0.0564 |
| V82H | 0.0586 |
| R39W | 0.0601 |
| C79Y | 0.0564 |
| I90E | 0.0977 |
| L107H | 0.0821 |
| V108S | 0.772 |
| L107V | 2.03 |
| I90G | 0.222 |
| G36A | 1.91 |
| F21M | 0.09 |
| L129N | 0.0535 |
| L110W | 0.0537 |
| M60L P61N L107C G128I | 4.97 |
| L107M | 0.371 |
| R111I | 0.288 |
| R118A | 0.168 |
| H106A | 0.213 |
| I3M | 1.27 |
| L49A | 0.0969 |
| G36L | 0.114 |
| I3T | 0.331 |
| L107G | 0.444 |
| L27N | 0.0601 |
| V82C | 0.0898 |
| E88A | 0.965 |
| E94G | 0.527 |
| R33C | 0.0612 |
| L129G | 0.0509 |
| L129M | 0.0788 |
| C79W | 0.0548 |
| I3A | 0.339 |
| V82G | 0.0548 |
| M60L P61N K104V G128M | 3.84 |
| E112C | 0.151 |
| L129P | 0.0491 |
| M60L D64K G128M | 4.46 |
| I97R | 0.116 |
| I90P | 0.151 |
| M60L | 2.8 |
| E112W | 0.152 |
| V16F | 0.107 |
| P61N K104V | 1.77 |
